target: MEK1^CA (human GST-MEK1, constitutively active, Ser218Asp and Ser222Asp) (Homo sapiens, UniProt Q02750, S218D/S222D); construct: GST; made in house; host or cells: Escherichia coli; assay: MEK1 enzymatic activity assay (MEK1^CA / ERK2 / MBP, [γ-33P]ATP incorporation); format: biochemical; conditions: Table 1, compounds of formula I; read-out: Avg IC50
Sequence (Q02750 whole entry S218D/S222D): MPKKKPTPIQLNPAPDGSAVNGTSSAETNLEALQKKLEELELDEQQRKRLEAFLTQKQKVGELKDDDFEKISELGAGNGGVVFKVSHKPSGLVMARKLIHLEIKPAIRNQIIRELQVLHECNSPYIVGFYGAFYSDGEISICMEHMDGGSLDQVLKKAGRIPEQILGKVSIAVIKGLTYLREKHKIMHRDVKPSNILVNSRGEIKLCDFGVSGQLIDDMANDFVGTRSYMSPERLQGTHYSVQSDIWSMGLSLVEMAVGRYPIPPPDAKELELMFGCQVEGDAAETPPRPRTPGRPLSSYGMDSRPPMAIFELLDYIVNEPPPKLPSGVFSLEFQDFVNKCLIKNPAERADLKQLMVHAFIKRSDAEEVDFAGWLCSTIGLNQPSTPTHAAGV
pIC50: −log10 of the molar value.
Examples of molecules with documented pIC50 follow.
reportedMetric: pIC50

molecule=CC(C)NC(=N)c1c(O)nsc1Nc1ccc(/C=C/c2ccccc2)cc1 valuemeasured="6.30 to 7.00"
molecule="CC(CO)NC(=N)c1c(O)nsc1Nc1ccc(Oc2cc(C(F)(F)F)cc(C(F)(F)F)c2)cc1 (centres unmarked)" valuemeasured="6.30 to 7.00"
molecule=CC(C)NC(=N)c1c(O)nsc1Nc1ccc(Oc2ccccc2)c(F)c1 valuemeasured="7.00 to 9.00"
molecule=Cc1ccc(Cl)cc1Oc1ccc(Nc2snc(O)c2C(=N)NC(C)C)cc1 valuemeasured="6.30 to 7.00"
molecule=CCOCCCNC(=N)c1c(O)nsc1Nc1ccc(Oc2ccccc2)cc1 valuemeasured="7.00 to 9.00"
molecule=N=C(NCC1CCCCC1)c1c(O)nsc1Nc1ccc(N2CCCCC2)cc1 valuemeasured="< 6.30"
molecule=CC(C)NC(=N)c1c(O)nsc1Nc1ccc(Oc2ccc(Br)c3ccccc23)cc1 valuemeasured="7.00 to 9.00"
molecule=COC(=O)c1cccc(Nc2snc(O)c2C(=N)NC(C)C)c1C valuemeasured="< 6.30"
